// reported log10 of kinact/KI for each item listed
Experimental System: rhinovirus 3C protease from HRV serotype-14 (Human rhinovirus 14, UniProt P03303)
Construct: Recombinant rhinovirus 3C proteases; made in house
Sequence (P03303 1538-1719): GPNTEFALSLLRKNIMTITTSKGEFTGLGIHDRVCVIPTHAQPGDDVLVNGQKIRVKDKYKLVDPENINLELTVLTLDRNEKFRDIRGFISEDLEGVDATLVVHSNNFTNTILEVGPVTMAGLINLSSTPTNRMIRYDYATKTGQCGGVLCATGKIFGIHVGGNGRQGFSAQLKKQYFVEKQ
Assay Notes: Inhibition of rhinovirus 3C protease (FRET assay), serotype 14
Type: biochemical
Condition Info: HRV serotype-14 3C protease; progress curves in enzyme start experiments; read-out: Protease Inhibition kobs/[I]
Quantity: log10 of kinact/KI (log10 of the value in M⁻¹ s⁻¹)

Smiles String	log10 of kinact/KI
CCOC(=O)/C=C/[C@H](C[C@@H]1CCNC1=O)NC(=O)[C@H](Cc1ccccc1)NC(=O)[C@@H](NC(=O)OCc1ccccc1)C(C)C	5.70
CCOC(=O)/C=C/[C@H](CCC(N)=O)NC(=O)[C@H](Cc1ccccc1)NC(=O)[C@H](CC(C)C)NC(=O)c1cc(C)on1	5.41
CCOC(=O)/C=C/[C@H](CCC(N)=O)NC(=O)[C@H](Cc1ccc(F)cc1)N(C)C(=O)[C@H](Cc1cccc2ccccc12)NC(=O)c1cc(C)on1	4.98
CCOC(=O)/C=C/[C@H](C[C@H]1CCNC1=O)NC(=O)[C@H](Cc1ccccc1)NC(=O)[C@H](CC(C)C)NC(=O)OCc1ccccc1	4.26
CCOC(=O)/C=C/[C@H](CCC(N)=O)NC(=O)[C@H](Cc1ccc(F)cc1)N(C)C(=O)[C@H](Cc1ccc2ccccc2c1)NC(=O)c1cc(C)on1	5.03
CCOC(=O)/C=C/[C@H](CCC(N)=O)NC(=O)[C@@H](CC(=O)[C@@H](NC(=O)c1cc(C)on1)C(C)C)Cc1ccc(F)cc1	5.38

###

Test system: HRV-14
Assay Notes: Antirhinoviral H1-HeLa cell culture assay, HRV-14
Type: cell-based, human rhinovirus
Condition Info: Rhinovirus B, HRV14, H1-HeLa, Table 3; HRV serotype-14; H1-HeLa cells; XTT; read-out: EC50
pEC50: −log10 of the molar value.
// reported pEC50 for each item listed
Quantity: pEC50

Compound	Experimental System	Quantity	Readout Number
CCOC(=O)/C=C/[C@H](C[C@@H]1CCNC1=O)NC(=O)[C@@H](CC(=O)[C@@H](NC(=O)c1cc(C)on1)C(C)C)Cc1ccc(F)cc1 [Compound B-2]	HRV-14	pEC50	8.30
CCOC(=O)/C=C/[C@H](CCC(N)=O)NC(=O)[C@H](Cc1ccc(F)cc1)N(C)C(=O)[C@H](Cc1cccc2ccccc12)NC(=O)c1cc(C)on1 [Compound A-13]	HRV-14	pEC50	6.70
Cc1cc(CCCOc2c(C)cc(-c3noc(C(F)(F)F)n3)cc2C)on1 [Pleconaril, reference compound]	HRV-14	pEC50	8.00
CCOC(=O)/C=C/[C@H](CCC(N)=O)NC(=O)[C@H](Cc1ccc(F)cc1)N(C)C(=O)[C@H](Cc1ccc2ccccc2c1)NC(=O)c1cc(C)on1 [Compound A-11]	HRV-14	pEC50	7.52
CCOC(=O)/C=C/[C@H](CCC(N)=O)NC(=O)[C@H](Cc1ccccc1)NC(=O)[C@H](CC(C)C)NC(=O)c1cc(C)oc1C [Compound A-20]	HRV-14	pEC50	4.90
CCOC(=O)/C=C/[C@H](CCC(N)=O)NC(=O)[C@H](Cc1ccccc1)NC(=O)[C@@H](NC(=O)OCc1ccccc1)C(C)C [Comparison Compound #3]	HRV-14	pEC50	6.42

###

Tested on: Coxsackievirus type A-21 (CAV-21)
Assay Notes: Anticoxsackieviral cell culture assay, CAV-21
Type: cell-based
Condition Info: H1-HeLa, 48 h
pEC50: −log10 of the molar value.

Molecule	Experimental System	pEC50
Cc1cc(CCCOc2c(C)cc(-c3noc(C(F)(F)F)n3)cc2C)on1 [Pleconaril, reference compound]	Coxsackievirus type A-21 (CAV-21)	7.05

###

Tested on: HRV-14
Assay Notes: Antirhinoviral H1-HeLa cell culture assay, HRV-14
Format: cell-based, human rhinovirus
Condition Info: Rhinovirus B, HRV14, H1-HeLa, Table 3; HRV serotype-14; H1-HeLa cells; XTT; read-out: EC50

Compound	Experimental System	EC50
CCOC(=O)/C=C/[C@H](C[C@@H]1CCNC1=O)NC(=O)[C@H](Cc1ccccc1)NC(=O)[C@@H](NC(=O)OCc1ccccc1)C(C)C [Compound A-25]	HRV-14	30 nM
CCOC(=O)/C=C/[C@H](C[C@@H]1CCCNC1=O)NC(=O)[C@@H](CC(=O)[C@@H](NC(=O)c1cc(C)on1)C(C)C)Cc1ccc(F)cc1 [Compound B-4]	HRV-14	< 30 nM
CCOC(=O)/C=C/[C@H](C[C@H]1CCNC1=O)NC(=O)[C@H](Cc1ccccc1)NC(=O)[C@H](CC(C)C)NC(=O)OCc1ccccc1 [Compound A-27]	HRV-14	1600 nM
CCOC(=O)/C=C/[C@H](CCC(N)=O)NC(=O)[C@H](Cc1ccccc1)NC(=O)[C@H](CC(C)C)NC(=O)OCc1ccccc1 [Comparison Compound #2, reference compound]	HRV-14	610 nM
CCOC(=O)/C=C/[C@H](CCC(N)=O)NC(=O)[C@H](Cc1ccc(F)cc1)NC(=O)[C@@H](NC(=O)c1cc(C)on1)C(C)C [Compound A-6]	HRV-14	420 nM
CC(C)[C@H](NC(=O)C1SCCS1)C(=O)N[C@@H](Cc1ccc(F)cc1)C(=O)N[C@H](/C=C/C(=O)OCc1cccnc1)CCC(N)=O [Compound A-18]	HRV-14	1500 nM
CCOC(=O)/C=C/[C@H](CCC(N)=O)NC(=O)[C@H](Cc1ccc(C)cc1)NC(=O)[C@@H](NC(=O)c1cc(C)on1)C(C)(C)C [Compound A-3]	HRV-14	50 nM
CCOC(=O)c1ccc(OCCC2CCN(c3ccc(C)nn3)CC2)cc1 [Pirodavir, reference compound]	HRV-14	30 nM
CCOC(=O)/C=C/[C@H](C[C@@H]1CCNC1=O)NC(=O)[C@H](Cc1ccccc1)NC(=O)[C@H](CC(C)C)NC(=O)OCc1ccccc1 [Compound A-24]	HRV-14	100 nM
CCOC(=O)/C=C/[C@H](CCC(N)=O)NC(=O)[C@H](Cc1ccc(C)cc1)NC(=O)[C@@H](NC(=O)c1ccc[nH]1)C(C)(C)C [Compound A-16]	HRV-14	450 nM
CCOC(=O)/C=C/[C@H](C[C@@H]1CCNC1=O)NC(=O)[C@H](Cc1ccc(F)cc1)OC(=O)[C@@H](NC(=O)c1cc(C)on1)C(C)C [Compound C-2]	HRV-14	2 nM

###

// reported EC50 for each item listed
Tested on: HRV-14
Assay Notes: Antirhinoviral H1-HeLa cell culture assay, HRV-14
Format: cell-based, human rhinovirus
Condition Info: Rhinovirus B, HRV14, H1-HeLa, Table 3; HRV serotype-14; H1-HeLa cells; XTT; read-out: EC50

Compound	Qualifier	EC50 [nM]
CC(C)C[C@H](NC(=O)OCc1ccccc1)C(=O)N[C@@H](Cc1ccccc1)C(=O)N[C@H](/C=C/c1ccno1)CCC(N)=O [Comparison Compound #1, reference compound]	>	320000
CCOC(=O)/C=C/[C@H](CCC(N)=O)NC(=O)[C@@H](CC(=O)[C@@H](NC(=O)c1cc(C)on1)C(C)C)Cc1ccc(F)cc1	=	100
CCOC(=O)/C=C/[C@H](CCC(N)=O)NC(=O)[C@H](Cc1ccc(F)cc1)NC(=O)[C@@H](NC(=O)C1SCCS1)C(C)(C)C	=	60
CCOC(=O)/C=C/[C@H](CCC(N)=O)NC(=O)[C@H](Cc1ccccc1)NC(=O)[C@H](CC(C)C)NC(=O)[C@@H]1C=CCN1	=	25100
CCOC(=O)/C=C/[C@H](CCC(N)=O)NC(=O)[C@H](Cc1ccc(F)cc1)NC(=O)[C@@H](NC(=O)c1cc(C)on1)C(C)(C)C	=	100
CCOC(=O)/C=C/[C@H](CCC(N)=O)NC(=O)[C@H](Cc1ccc(C)cc1)NC(=O)[C@@H](NC(=O)C1SCCS1)C(C)(C)C	=	220

###

// reported pEC50 for each item listed
Test system: HRV-14
Assay Notes: Antirhinoviral H1-HeLa cell culture assay, HRV-14
Type: cell-based, human rhinovirus
Condition Info: Rhinovirus B, HRV14, H1-HeLa, Table 3; HRV serotype-14; H1-HeLa cells; XTT; read-out: EC50
Description: In this cell protection assay, the ability of compounds to protect cells against HRV infection was measured by the XTT dye reduction method, which is described in Weislow et al., J. Natl. Cancer Inst. 1989, vol. 81, 577-586. H1-HeLa cells were infected with HRV-14 at a multiplicity of infection (m.o.i.) of 0.13 (virus particles/cell) or mock-infected with medium only. […] The therapeutic index (TI) was calculated by dividing the CC50 value by the EC50 value. […]
pEC50: −log10 of the molar value.

Smiles String	pEC50
CCOC(=O)/C=C/[C@H](CCC(N)=O)NC(=O)[C@H](Cc1ccccc1)NC(=O)[C@H](CC(C)C)NC(=O)c1nc(C)c[nH]1	5.60
CCOC(=O)/C=C/[C@H](CCC(N)=O)NC(=O)[C@H](Cc1ccccc1)NC(=O)[C@H](CC(C)C)NC(=O)c1ccno1	5.80
CCOC(=O)/C=C/[C@H](CCC(N)=O)NC(=O)[C@H](Cc1ccc(F)cc1)N(C)C(=O)[C@H](Cc1c[nH]cn1)NC(=O)c1cc(C)on1	5.74
